Provenance of the data: patent US20250333515A1

Target: T1, CLL-1 on the surface of CLL-1-positive AML cell lines (HL-60 WT, U937) (human, UniProt Q5QGZ9 1-265)
T1 construct: whole, on cells; also called HL-60 WT cells; U937 cells
T1 sequence (looked up): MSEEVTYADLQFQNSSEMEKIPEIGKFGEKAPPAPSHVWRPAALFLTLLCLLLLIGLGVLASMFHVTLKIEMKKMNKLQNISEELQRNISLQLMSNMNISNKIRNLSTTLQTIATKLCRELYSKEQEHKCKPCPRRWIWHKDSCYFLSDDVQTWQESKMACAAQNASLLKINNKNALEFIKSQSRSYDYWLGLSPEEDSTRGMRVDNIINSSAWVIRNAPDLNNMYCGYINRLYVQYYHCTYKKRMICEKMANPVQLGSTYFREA
Assay: flow cytometry, U937, 200 nM; last table names out of step
Description: HL60 WT, U937, or HL-60 CLL-1 knockout (KO) control cells were counted, washed in PBS and mixed with 1 ml of Fixable Viability dye eFluor 780 (diluted at 1:1000 in PBS) then incubated at room temperature for 10 minutes to distinguish Live/Dead cells. Subsequently the cells were washed once with FACS Buffer (PBS with 2% FBS) and incubated with human TruStain FcX™ (Fc block diluted at 1:10 in FACS buffer) at room temperature for 5 minutes. […]
I'd appreciate it if you could supply Geometric Mean : B530-H values for the items below.
Enter the number alone.

Ask: Entry Anti-CLL-1 Binder Clone 2 (scFv, scFv (VL-linker-VH); not shown: FLAG tag) scFv: QSVLTQPLSVSVALGQTARITCGGNNIGSKNVHWYQQKAGQAPVLVIQRDSNRPSGIPERFSGSNSGNTATLTISRAQAGDEADYFCQVWDSNTYVFGTGTKLTVLGGGGSGGGGSGGGGSEVQLVESGGGLVKPGGSLRLSCAASGFTFSDYYMSWIRQAPGKGLEWVSYISSSGSTIYYADSVKGRFTISRDNAKNSLYLQMNSLRDEDTAVYYCARQSAEIVGAFDHWGQGTMVTVSS has what Geometric Mean : B530-H?
Result: 50800

Ask: Form field: reported Geometric Mean : B530-H of Anti-CLL-1 Binder Clone 38 (scFv, scFv (VL-linker-VH); not shown: FLAG tag) scFv: DIQMTQSPSTLSASVGDRVTITCRASQSISSWLAWYQQKPGKAPKLLIYTASSLQSGVPSRFSGSESGTDFTLTISSLQPEDFATYYCQQSYSTPLTFGGGTKVDIKGGGGSGGGGSGGGGSQVQLVQSGAEVKKPGASVKVSCKASGYTFTGYYMHWVRQAPGQGLEWMGWINPNSGGTNYAQKFQGRVTLTRDTSITTAYLELTSLTSDDTAVYYCARGDTGDFFDHWGQGTLVTVSS
Result: 55300

Ask: I'd like to know its Geometric Mean : B530-H. The binder in question is Anti-CLL-1 Binder Clone 1 (scFv, scFv (VL-linker-VH) from a fully human scFv phage library; not shown: FLAG tag) scFv: SYVLTQPPSVSVAPGQTARITCGGNNIGSKSVHWYQQKPGQAPVLVVYDDSDRPSGIPERFSGSNSGNTATLTISRVEAGDEADYYCQVWDSSSDHPVFGGGTQLIILGGGGSGGGGSGGGGSQVQLVQSGAEVKKPGSSVKVSCKASGGTFSSYAISWVRQAPGQGLEWMGRIIPILGIANYAQKFQGRVTITADESTSTAYMELSSLRSEDTAVYYCAREKDDILTGAYYYGMDVWGQGTTVTVSS
Result: 46300
